System: Cryptococcus neoformans
Assay: Antifungal activity against Cryptococcus neoformans ATCC 32264 assessed as growth inhibition at 31.25 ug/ml after 48 hrs by broth microdilution method
Assay type: functional
Details: ATCC 32264, 48 h
Outcome label depends on inhibition at 31.25 µg/mL relative to 10%: at/above gives T, below gives F.

Take a look at these entries with their results.
Cc1ccc(C2=Nc3c(N)nc(N)nc3NC(c3sc(Cl)nc3Cl)C2)cc1 (configuration not stated) : F
Nc1nc(N)c2c(n1)NC(c1sc(Cl)nc1Cl)CC(c1ccc(Cl)cc1)=N2 (configuration not stated) : T
Nc1nc(N)c2c(n1)NC(c1sc(Cl)nc1Cl)CC(c1ccccc1)=N2 (configuration not stated) : F
Nc1nc(N)c2c(n1)NC(c1sc(Cl)nc1Cl)CC(c1ccc3c(c1)OCO3)=N2 (configuration not stated) : F

Could you verify whether the entry COc1cc(C2=Nc3c(N)nc(N)nc3NC(c3sc(Cl)nc3Cl)C2)cc(OC)c1OC (configuration not stated) shows inhibition at 31.25 µg/mL of no less than 10%?
F

Could you verify whether the entry COc1ccc(C2=Nc3c(N)nc(N)nc3NC(c3sc(Cl)nc3Cl)C2)cc1 (configuration not stated) shows inhibition at 31.25 µg/mL of no less than 10%?
T

Could you verify whether the entry Nc1nc(N)c2c(n1)NC(c1sc(Cl)nc1Cl)CC(c1ccc(F)cc1)=N2 (configuration not stated) shows inhibition at 31.25 µg/mL of no less than 10%?
T

The reported measurements were obtained from ChEMBL document CHEMBL3407460.
